# Target Or System: H1047R PIK3CA enzyme (Homo sapiens, UniProt P42336, H1047R)
# Sequence (P42336 whole entry H1047R): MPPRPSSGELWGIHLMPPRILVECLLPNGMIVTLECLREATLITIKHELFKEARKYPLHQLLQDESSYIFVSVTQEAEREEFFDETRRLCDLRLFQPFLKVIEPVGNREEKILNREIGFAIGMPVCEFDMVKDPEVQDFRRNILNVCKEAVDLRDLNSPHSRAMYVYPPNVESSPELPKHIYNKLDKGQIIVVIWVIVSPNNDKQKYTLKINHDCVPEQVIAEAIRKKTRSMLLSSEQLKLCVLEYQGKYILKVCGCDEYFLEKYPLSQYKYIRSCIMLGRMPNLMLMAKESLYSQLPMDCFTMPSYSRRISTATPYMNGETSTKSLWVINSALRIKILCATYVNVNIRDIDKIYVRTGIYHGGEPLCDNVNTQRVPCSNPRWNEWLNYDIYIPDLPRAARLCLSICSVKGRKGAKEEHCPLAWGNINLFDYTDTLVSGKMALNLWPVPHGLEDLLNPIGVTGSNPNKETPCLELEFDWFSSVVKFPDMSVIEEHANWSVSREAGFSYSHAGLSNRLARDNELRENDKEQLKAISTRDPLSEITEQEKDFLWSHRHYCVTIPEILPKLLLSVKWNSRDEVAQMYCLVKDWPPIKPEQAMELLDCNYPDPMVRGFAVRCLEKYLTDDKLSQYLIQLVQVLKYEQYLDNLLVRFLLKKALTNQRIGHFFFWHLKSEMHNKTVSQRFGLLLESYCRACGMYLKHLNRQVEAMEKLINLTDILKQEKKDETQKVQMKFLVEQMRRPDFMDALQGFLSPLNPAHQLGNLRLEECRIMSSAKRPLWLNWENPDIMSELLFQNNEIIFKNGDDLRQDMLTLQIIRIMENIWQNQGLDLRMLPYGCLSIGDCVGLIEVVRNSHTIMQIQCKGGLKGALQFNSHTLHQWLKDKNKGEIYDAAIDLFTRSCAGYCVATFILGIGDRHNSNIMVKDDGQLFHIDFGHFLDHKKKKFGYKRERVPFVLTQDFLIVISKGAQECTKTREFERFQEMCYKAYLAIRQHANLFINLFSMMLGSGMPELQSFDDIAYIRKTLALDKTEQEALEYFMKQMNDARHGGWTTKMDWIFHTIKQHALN
# Sequence (P27986 whole entry partner): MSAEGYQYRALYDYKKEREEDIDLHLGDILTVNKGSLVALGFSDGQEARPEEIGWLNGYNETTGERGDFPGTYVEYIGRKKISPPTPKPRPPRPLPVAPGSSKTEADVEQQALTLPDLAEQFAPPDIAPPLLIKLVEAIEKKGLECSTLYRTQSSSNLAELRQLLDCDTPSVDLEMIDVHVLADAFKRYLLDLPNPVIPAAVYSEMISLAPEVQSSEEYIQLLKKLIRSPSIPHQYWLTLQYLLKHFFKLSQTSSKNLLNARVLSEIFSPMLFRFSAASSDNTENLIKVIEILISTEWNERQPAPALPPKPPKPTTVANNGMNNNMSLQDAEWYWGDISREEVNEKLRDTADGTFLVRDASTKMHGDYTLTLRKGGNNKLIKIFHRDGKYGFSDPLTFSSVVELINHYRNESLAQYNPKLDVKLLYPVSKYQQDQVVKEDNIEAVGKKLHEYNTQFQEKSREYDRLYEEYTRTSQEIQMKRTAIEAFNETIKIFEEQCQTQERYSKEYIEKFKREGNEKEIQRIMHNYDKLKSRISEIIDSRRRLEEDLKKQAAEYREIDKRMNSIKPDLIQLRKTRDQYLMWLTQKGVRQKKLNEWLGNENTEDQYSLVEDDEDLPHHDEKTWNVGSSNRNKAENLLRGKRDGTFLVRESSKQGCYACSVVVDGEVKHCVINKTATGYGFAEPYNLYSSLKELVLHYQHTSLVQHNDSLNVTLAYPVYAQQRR
# Experimental Details: ADP-Glo Biochemical PIK3CA Kinase Assay
pIC50: −log10 of the molar value.
Endpoint Name: pIC50

Asked: API: value(readout= pIC50, system= H1047R PIK3CA enzyme (Homo sapiens, UniProt P42336, H1047R), query= CC[C@@]1(O)CN(C(=O)Nc2cccc3c2[C@@H](c2cc(F)ccc2Cl)NC3=O)c2ccc(F)cc21 (single isomer, unassigned) [Compound I-2461] )
Given back: ≥ 7.00

Asked: Here is the next compound: O=C(CC1CC1)Nc1cc(-c2ccc3ncnn3c2)cc2c1C(c1cc(F)ccc1Cl)NC2=O (stereo not shown) [Compound I-1781]
Given back: 4.00 to 5.00

Asked: Also C[C@@H](C#N)Oc1cc(NC(=O)c2cc(F)cc(C(F)(F)F)c2)c2c(c1)C(=O)N[C@@H]2c1cc(F)ccc1Cl (single isomer, unassigned) [Compound I-2007] ?
Given back: 5.00 to 6.00

Asked: Same again, this time with Cc1ccccc1[C@@H]1NC(=O)c2cc(N)cc(NC(=O)c3cc(F)cc(C(F)(F)F)c3)c21 [Compound I-66]
Given back: ≥ 7.00

Asked: Now the same for O=C1N[C@@H](c2cc(F)ccc2Cl)c2c(NC(=O)N3C[C@](O)(CO)c4ccccc43)cccc21 [Compound I-2166]
Given back: 5.00 to 6.00

Asked: One more compound: O=C(Nc1cc(-c2ccn3nc(Cl)nc3c2)cc2c1[C@@H](c1cc(F)ccc1Cl)NC2=O)c1cc(F)cc(C(F)(F)F)c1 [Compound I-1606]
Given back: 6.30 to 7.00

Asked: Similarly, CC(=O)N1CCC[C@H](Oc2cc(NC(=O)c3cc(F)cc(C(F)(F)F)c3)c3c(c2)C(=O)NC3c2cc(F)ccc2Cl)C1 (single isomer, unassigned) [Compound I-1525] ?
Given back: 6.30 to 7.00

Asked: Next record, please: CN(C)S(=O)(=O)n1nccc1-c1cc(NC(=O)c2cc(F)cc(C(F)(F)F)c2)c2c(c1)C(=O)N[C@H]2c1cc(F)ccc1Cl [Compound I-1599]
Given back: ≥ 7.00

Asked: Another: O=C(Nc1cc(Br)cc2c1[C@@H](c1cccc(F)c1Cl)NC2=O)c1cc(F)cc(C(F)(F)F)c1 [Compound I-667]
Given back: 5.00 to 6.00

Asked: How about COc1nccc(Oc2cc(NC(=O)c3cc(F)cc(C(F)(F)F)c3)c3c(c2)C(=O)NC3c2cc(F)ccc2Cl)n1 (stereo not shown) [Compound I-1148] ?
Given back: ≥ 7.00

Asked: Then O=C(Nc1cc(Br)cc2c1[C@H](c1cc(F)ccc1F)NC2=O)c1cc(F)cc(C(F)(F)F)c1 [Compound I-674] ?
Given back: 6.30 to 7.00

Asked: What about this compound? N#CC1CN(c2cc(NC(=O)c3cc(F)cc(C(F)(F)F)c3)c3c(c2)C(=O)NC3c2cc(F)ccc2Cl)C1 (stereo not shown) [Compound I-723]
Given back: ≥ 7.00

Asked: For NC(=O)Cn1nc(Nc2cc(-c3ccc4ncnn4c3)cc3c2C(c2cc(F)ccc2Cl)NC3=O)c2ccccc21 (stereo not shown) [Compound I-1806] then?
Given back: 5.00 to 6.00

The origin of these recorded values is patent US12581252B2.
